Reported values of Ki for individual entries
target: human 5-HT1A receptors (Homo sapiens); construct: expressed in transfected cells; host or cells: CHO cells; assay: [3H] 8-OHDPAT displacement, 5-HT1A receptor affinity; type: binding
Sequence (P08908 whole entry): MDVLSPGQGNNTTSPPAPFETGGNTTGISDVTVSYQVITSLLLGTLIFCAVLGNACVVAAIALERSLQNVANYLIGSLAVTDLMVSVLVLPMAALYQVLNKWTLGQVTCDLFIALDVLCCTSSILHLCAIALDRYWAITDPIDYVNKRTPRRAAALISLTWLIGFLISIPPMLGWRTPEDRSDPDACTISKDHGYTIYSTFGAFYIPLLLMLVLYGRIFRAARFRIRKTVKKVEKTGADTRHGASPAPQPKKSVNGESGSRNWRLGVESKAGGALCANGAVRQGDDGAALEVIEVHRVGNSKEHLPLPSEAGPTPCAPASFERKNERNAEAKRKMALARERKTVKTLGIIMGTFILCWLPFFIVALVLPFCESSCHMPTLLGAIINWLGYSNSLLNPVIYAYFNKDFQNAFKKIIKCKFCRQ
Supply the numeric figure in nM, leaving out any unit text.

Inquiry: Given the entry C1=C(c2c[nH]c3ccccc23)CCN(CC2COc3ccc4nccnc4c3O2)C1 (centres unmarked) , report its measured Ki.
Reply text: 30

Inquiry: Looking for the measured Ki of Cc1nc2ccc3c(c2nc1C)OC(CN1CC=C(c2c[nH]c4ccc(F)cc24)CC1)CO3 (centres unmarked) , can you help?
Reply text: 25.5

Inquiry: Requested read-out: Ki. Entry: Fc1ccc2[nH]cc(C3=CCN(CC4COc5ccc6nccnc6c5O4)CC3)c2c1 (centres unmarked)
Reply text: 17.7

Inquiry: Fill in the blank: the reported Ki of "Cc1nc2ccc3c(c2nc1C)O[C@@H](CN1CC=C(c2c[nH]c4ccccc24)CC1)CO3" is ____.
Reply text: 15.3

Okay, now this compound:
Inquiry: What measured Ki goes with CCc1nc2ccc3c(c2nc1CC)OC(CN1CC=C(c2c[nH]c4ccccc24)CC1)CO3 (centres unmarked) ?
Reply text: 99.2

----------
Measured pIC50 (cloned human 5-HT1A receptors (Homo sapiens, UniProt P08908))
A value of pIC50 is the negative decimal logarithm of a concentration given in moles per litre.

Illustrative cases are given below, each with its answer.
Inquiry: Item: C1=C(c2c[nH]c3ccccc23)CCN(CC2COc3ccc4nccnc4c3O2)C1 (stereo not drawn) [Example 2] Test system: cloned human 5-HT1A receptors (Homo sapiens, UniProt P08908) Read-out: pIC50 Value: ?
Reply text: 6.69

Inquiry: For cloned human 5-HT1A receptors (Homo sapiens, UniProt P08908), provide pIC50 of Cc1nc2ccc3c(c2nc1C)O[C@@H](CN1CC=C(c2c[nH]c4ccccc24)CC1)CO3 [Example 3] please.
Reply text: 6.48

Inquiry: Write down the reported pIC50 of CCc1nc2ccc3c(c2nc1CC)OC(CN1CC=C(c2c[nH]c4ccccc24)CC1)CO3 (stereo not drawn) [Example 5] , test system: cloned human 5-HT1A receptors (Homo sapiens, UniProt P08908).
Sequence (P08908 whole entry): as above
Reply text: 5.73

---
Inquiry: Under cloned human 5-HT1A receptors (Homo sapiens, UniProt P08908): pIC50 value of Fc1ccc2[nH]cc(C3=CCN(CC4COc5ccc6nccnc6c5O4)CC3)c2c1 (stereo not drawn) [Example 1] ?
Reply text: 6.57

Inquiry: Give cloned human 5-HT1A receptors (Homo sapiens, UniProt P08908) pIC50 for CCc1nc2ccc3c(c2nc1CC)OC(CN1CC=C(c2c[nH]c4ccc(F)cc24)CC1)CO3 (stereo not drawn) [Example 6]
Reply text: 5.65

Inquiry: Notebook: pull reported pIC50 for cloned human 5-HT1A receptors (Homo sapiens, UniProt P08908), entry Cc1nc2ccc3c(c2nc1C)OC(CN1CC=C(c2c[nH]c4ccc(F)cc24)CC1)CO3 (stereo not drawn) [Example 4]
Reply text: 6.41

----------
biological target: serotonin transporter (Rattus norvegicus, UniProt P31652); construct: displace ^3H-paroxetine from male rat frontal cortical membranes; from tissue; host or cells: male rat frontal cortex membranes; test: 3H-paroxetine displacement, serotonin transporter affinity; assay type: binding
Sequence (P31652 whole entry): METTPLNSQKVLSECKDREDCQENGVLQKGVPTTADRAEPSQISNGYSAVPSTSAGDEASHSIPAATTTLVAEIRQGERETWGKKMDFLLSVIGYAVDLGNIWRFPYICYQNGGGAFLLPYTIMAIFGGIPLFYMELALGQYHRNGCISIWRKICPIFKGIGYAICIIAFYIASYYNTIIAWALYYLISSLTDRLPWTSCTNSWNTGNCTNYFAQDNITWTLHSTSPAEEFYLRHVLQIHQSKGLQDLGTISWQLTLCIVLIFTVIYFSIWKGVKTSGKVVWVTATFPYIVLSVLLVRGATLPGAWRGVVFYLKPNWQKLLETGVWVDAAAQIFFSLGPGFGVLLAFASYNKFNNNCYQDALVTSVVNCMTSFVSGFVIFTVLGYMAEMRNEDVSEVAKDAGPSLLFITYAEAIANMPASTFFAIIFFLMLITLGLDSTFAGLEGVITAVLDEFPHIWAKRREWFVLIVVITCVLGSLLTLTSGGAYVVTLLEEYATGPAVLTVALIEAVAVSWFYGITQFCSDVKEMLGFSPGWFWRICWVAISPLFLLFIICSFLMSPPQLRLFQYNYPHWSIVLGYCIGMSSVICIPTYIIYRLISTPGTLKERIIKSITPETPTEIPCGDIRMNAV
VALUE_KIND: Ki (nM)
Answer with a number only, understood to be in nM.

Known results for compounds:
Inquiry: Please provide the recorded Ki for CCc1nc2ccc3c(c2nc1CC)OC(CN1CC=C(c2c[nH]c4ccccc24)CC1)CO3 (centres unmarked) , tested on serotonin transporter (Rattus norvegicus, UniProt P31652).
Reply text: 9.5

Inquiry: Lab request: please report Ki under test system serotonin transporter (Rattus norvegicus, UniProt P31652) for C1=C(c2c[nH]c3ccccc23)CCN(CC2COc3ccc4nccnc4c3O2)C1 (centres unmarked)
Reply text: 2.86

Inquiry: serotonin transporter (Rattus norvegicus, UniProt P31652) / Ki / Fc1ccc2[nH]cc(C3=CCN(CC4COc5ccc6nccnc6c5O4)CC3)c2c1 (centres unmarked) : value?
Reply text: 0.5

Inquiry: Record Cc1nc2ccc3c(c2nc1C)OC(CN1CC=C(c2c[nH]c4ccc(F)cc24)CC1)CO3 (centres unmarked) : what is its Ki with serotonin transporter (Rattus norvegicus, UniProt P31652)?
Reply text: 1.57

***
Inquiry: So what Ki did "Cc1nc2ccc3c(c2nc1C)O[C@@H](CN1CC=C(c2c[nH]c4ccccc24)CC1)CO3" get with serotonin transporter (Rattus norvegicus, UniProt P31652)?
Reply text: 1.19
